Recorded IC50 by entry
Target: Botulinum neurotoxin type A (Clostridium botulinum, UniProt P0DPI0)
Sequence (P0DPI0 2-448 limits assumed): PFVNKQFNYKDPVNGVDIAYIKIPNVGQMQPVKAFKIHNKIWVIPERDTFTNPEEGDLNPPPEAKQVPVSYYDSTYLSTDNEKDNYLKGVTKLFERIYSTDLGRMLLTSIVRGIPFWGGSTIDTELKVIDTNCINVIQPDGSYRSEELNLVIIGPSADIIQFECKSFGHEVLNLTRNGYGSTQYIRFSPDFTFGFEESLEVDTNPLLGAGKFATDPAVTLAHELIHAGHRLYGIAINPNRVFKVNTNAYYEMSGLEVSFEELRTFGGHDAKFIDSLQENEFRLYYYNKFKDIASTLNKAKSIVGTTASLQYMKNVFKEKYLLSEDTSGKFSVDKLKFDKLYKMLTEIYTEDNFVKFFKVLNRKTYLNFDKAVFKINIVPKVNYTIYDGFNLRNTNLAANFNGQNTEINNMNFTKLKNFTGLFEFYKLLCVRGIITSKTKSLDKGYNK
Assay: Inhibition of protease activity of recombinant full-length Clostridium botulinum BoNT/A light chain after 5 mins by HPLC-based assay
Just the number in µM, nothing appended.

Some compounds with recorded IC50:
Oc1c(C(Nc2cccnc2)c2ccccc2F)ccc2cccnc12 (racemic) : 3.9
Oc1c(C(Nc2ccccn2)c2ccccc2)ccc2cccnc12 (racemic) : 1.6
Oc1c(C(Nc2cccnc2)c2ccc(C(F)(F)F)cc2)ccc2cccnc12 (racemic) : 4.7

IC50 reported for this compound CCOc1ccc(C(Nc2cccnc2)c2cc(Cl)c3cccnc3c2O)cc1 (racemic) : 2.1

IC50 reported for this compound Oc1c(C(Nc2cccc3cccnc23)c2ccccc2)ccc2cccnc12 (racemic) : 3.2

----------
Molecular target: Botulinum neurotoxin type A (Clostridium botulinum, UniProt P0DPI0)
Experiment: Inhibition of protease activity of recombinant Clostridium botulinum BoNT/A (1 to 425) light chain after 5 mins by HPLC-based assay
experimental readout: IC50 (nM)
Just the number in nM, nothing appended.

Some molecules with recorded IC50:
Oc1c(C(Nc2ccccn2)c2ccccc2)ccc2cccnc12 (racemic) : 1500
CCOc1ccc(C(Nc2cccnc2)c2cc(Cl)c3cccnc3c2O)cc1 (racemic) : 1600
Oc1c(C(Nc2cccnc2)c2ccccc2F)ccc2cccnc12 (racemic) : 2400
Oc1c(C(Nc2cccc3cccnc23)c2ccccc2)ccc2cccnc12 (racemic) : 3900

Next molecule, please.
IC50 reported for this molecule Oc1c(C(Nc2cccnc2)c2ccc(C(F)(F)F)cc2)ccc2cccnc12 (racemic) : 5000

----------
Target: Botulinum neurotoxin type A (Clostridium botulinum)
Test: Binding affinity to Clostridium botulinum BoNT/A
experimental readout: pKi
Friendly reminder that pKi comes from taking -log10 of the concentration in mol/L.

pKi reported for this substance "Ac-CRATKML-NH2" : 5.72

----------
Molecular target: Botulinum neurotoxin type A (Clostridium botulinum) (UniProt P0DPI0)
Sequence (P0DPI0 2-448 limits assumed): as above
Experiment: Inhibition of protease activity of recombinant full-length Clostridium botulinum BoNT/A light chain at 20 uM after 5 mins by HPLC-based assay
Recorded inhibition by entry

Fill in: Botulinum neurotoxin type A (Clostridium botulinum) (UniProt P0DPI0) inhibition for CC(CO)(Nc1ccc([N+](=O)[O-])cc1[N+](=O)[O-])C(=O)O (racemic) = 29%

----------
Target: Botulinum neurotoxin type B (Clostridium botulinum)
Experiment: Inhibition of protease activity of recombinant full-length Clostridium botulinum BoNT/B light chain at 20 uM after 5 mins by HPLC-based assay
# label = 1 if inhibition >= 30% else 0

As a guide, the following entries are already answered.
Oc1c(C(Nc2cccc3cccnc23)c2ccccc2)ccc2cccnc12 (racemic) : 0
Oc1c(C(Nc2ccccn2)c2ccccc2)ccc2cccnc12 (racemic) : 0
Oc1c(C(Nc2cccnc2)c2ccccc2F)ccc2cccnc12 (racemic) : 0

Consider the additional compound presented here.
Prompt: Answer whether inhibition of CCOc1ccc(C(Nc2cccnc2)c2cc(Cl)c3cccnc3c2O)cc1 (racemic) is greater than or equal to 30%.
Completion: 1

----------
Molecular target: Botulinum neurotoxin type A (Clostridium botulinum)
Experiment: Inhibition of protease activity of recombinant full-length Clostridium botulinum BoNT/A light chain at 200 uM after 5 mins by HPLC-based assay
Group membership follows inhibition per the scheme one = under 80%, two = from 80% up to 90%, three = 90% and over

As a guide, the following entries are already answered.
Oc1c(C(Nc2cccnc2)c2ccc(C(F)(F)F)cc2)ccc2cccnc12 (racemic) : three
CC(CO)(Nc1ccc([N+](=O)[O-])cc1[N+](=O)[O-])C(=O)O (racemic) : one
O=[N+]([O-])c1cccc(CN(Cc2cccc([N+](=O)[O-])c2O)c2ccccc2)c1O : one
Oc1c(C(Nc2cccnc2)c2ccccc2F)ccc2cccnc12 (racemic) : three
Cc1ccc([N+](=O)[O-])cc1NC(=O)NNC(=O)CNC(=O)NCc1ccco1 : one
Cc1ccc(NC(=O)/C(CC(=O)c2sc(Nc3ccccc3Cl)nc2C)=N/Nc2ccc([N+](=O)[O-])cc2[N+](=O)[O-])c(C)c1 : two
CCOc1ccc(C(Nc2cccnc2)c2cc(Cl)c3cccnc3c2O)cc1 (racemic) : three

Consider the additional molecule presented here.
Prompt: Kindly state the category for this molecule: O=[N+]([O-])c1ccc(NC(c2ccccc2)c2ccc3cccnc3c2O)cc1 (racemic)
Completion: two

----------
Target: Botulinum neurotoxin type A (Clostridium botulinum)
Test: Inhibition of Clostridium botulinum BoNT/A light chain-mediated SNAP-25 cleavage in mouse Neuro2a cells at 10 uM after 30 mins by Western blotting
Type: cell-based
Calls of active or inactive are those of the source. The calls are words filed in the database; no cut-off is given here.
experimental readout: inhibition

CCOc1ccc(C(Nc2cccnc2)c2cc(Cl)c3cccnc3c2O)cc1 (racemic) : Active
Oc1c(C(Nc2cccnc2)c2ccccc2F)ccc2cccnc12 (racemic) : 68%
Oc1c(C(Nc2ccccn2)c2ccccc2)ccc2cccnc12 (racemic) : Active
Oc1c(C(Nc2cccnc2)c2ccc(C(F)(F)F)cc2)ccc2cccnc12 (racemic) : Active

Next molecule, please.
inhibition reported for this molecule Oc1c(C(Nc2cccc3cccnc23)c2ccccc2)ccc2cccnc12 (racemic) : 66%

----------
Target: Botulinum neurotoxin type A (Clostridium botulinum) (UniProt P0DPI0)
Assay: Inhibition of protease activity of recombinant full-length Clostridium botulinum BoNT/A light chain at 20 uM after 5 mins by HPLC-based assay
# label = 1 if inhibition >= 50% else -1

As a guide, the following entries are already answered.
Cc1ccc([N+](=O)[O-])cc1NC(=O)NNC(=O)CNC(=O)NCc1ccco1 : 1
O=[N+]([O-])c1cccc(CN(Cc2cccc([N+](=O)[O-])c2O)c2ccccc2)c1O : -1
O=[N+]([O-])c1ccc(NCCNc2ccc([N+](=O)[O-])cc2)cc1 : -1

Consider the additional molecule presented here.
Prompt: Answer whether inhibition of O=[N+]([O-])c1ccc(NC(c2ccccc2)c2ccc3cccnc3c2O)cc1 (racemic) is greater than or equal to 50%.
Completion: 1

----------
Target: Botulinum neurotoxin type A (Clostridium botulinum) (UniProt P0DPI0)
Experiment: Inhibition of protease activity of recombinant full-length Clostridium botulinum BoNT/A light chain at 200 uM after 5 mins by HPLC-based assay
Recorded inhibition by entry

Some compounds with recorded inhibition:
O=[N+]([O-])c1ccc(NCCNc2ccc([N+](=O)[O-])cc2)cc1 : 80%
O=C1c2ccccc2C(=O)N1CNc1ccccc1/C(=N/Nc1ccc([N+](=O)[O-])cc1[N+](=O)[O-])c1ccccc1 : 82%

Next compound, please.
Fill in: Botulinum neurotoxin type A (Clostridium botulinum) (UniProt P0DPI0) inhibition for Oc1c(C(Nc2cccc3cccnc23)c2ccccc2)ccc2cccnc12 (racemic) = 91.9%
